- Procedure Text: in vitro
- Study Conditions: human, hela cells, % viability
Test Readout: viability at 28.5 h, 10 µM
Answer with the figure and its unit, nothing else.

Recorded viability at 28.5 h, 10 µM, per entry:
Task item: Please look at this compound and report its viability at 28.5 h, 10 µM: Cn1ncc(N)c1C(=O)Nc1cccc(Cl)c1 [CBK270107]
Reply: 87.6%

Task item: Please look at this compound and report its viability at 28.5 h, 10 µM: O=[N+]([O-])c1ccc(Oc2cccc3cccnc23)c(C(F)(F)F)c1 [CBK002739]
Reply: 80.6%

Task item: Please look at this compound and report its viability at 28.5 h, 10 µM: CC(=O)Nc1nc(NC(C)=O)n2c(-c3ccccc3)nnc2n1 [CBK026649]
Reply: 93.7%

Further cases:
Task item: Please look at this compound and report its viability at 28.5 h, 10 µM: O=C1NC/C=C/CC2(CCN(C(=O)CCc3cccnc3)CC2)C(=O)NCCOc2ccccc21 [CBK292007]
Reply: 88.3%

Task item: Please look at this compound and report its viability at 28.5 h, 10 µM: CSc1ccccc1CNC(=O)c1ccc(C)nc1N1CCOCC1 [CBK106224]
Reply: 91.9%

Task item: Please look at this compound and report its viability at 28.5 h, 10 µM: COCCNC(=O)c1ccc(-c2cc(C(C)C)ccc2OC)nc1NCC1CC1 [CBK106256]
Reply: 94.1%

Task item: Please look at this compound and report its viability at 28.5 h, 10 µM: O=C(NC(Cc1ccc(O)cc1)C(=O)O)c1ccccc1 (stereo not shown) [CBK260937]
Reply: 88.4%

Task item: Please look at this compound and report its viability at 28.5 h, 10 µM: O=C(Nc1nccs1)c1cc(=O)c2ccccc2o1 [CBK287570]
Reply: 105%

Task item: Please look at this compound and report its viability at 28.5 h, 10 µM: Cc1cc(C[C@@H]2COC[C@H]2NCc2cccc(Cl)c2)on1 [CBK284885]
Reply: 89.9%

Task item: Please look at this compound and report its viability at 28.5 h, 10 µM: OCc1ccccc1-c1cncc(NCC2CCOCC2)n1 [CBK037309]
Reply: 113%

---

- Procedure Text: in vitro
- Study Conditions: human, hela cells, % viability
Test Readout: viability at 28.5 h, 10 µM

Task item: Please look at this compound and report its viability at 28.5 h, 10 µM: `COC(=O)c1sccc1S(=O)(=O)n1ccc2ccc(Br)cc21`
Reply: 92.6%

Further cases:
Task item: Please look at this compound and report its viability at 28.5 h, 10 µM: `CN(C)c1ccccc1-c1cc(N2CCN(S(=O)(=O)c3ccc(Cl)cc3)CC2)ncn1`
Reply: 81.7%

Task item: Please look at this compound and report its viability at 28.5 h, 10 µM: `O=C(NCCc1cccs1)NCc1cc(F)ccc1F`
Reply: 97.1%

Task item: Please look at this compound and report its viability at 28.5 h, 10 µM: CCC(CO)Nc1cncc(-c2cccc(/C=C/C(=O)O)c2)n1 (stereo not drawn)
Reply: 114%

Task item: Please look at this compound and report its viability at 28.5 h, 10 µM: `NNC(=O)CNS(=O)(=O)c1ccccc1`
Reply: 97.9%

---

- Procedure Text: in vitro
- Study Conditions: human, hela cells, % viability
Rule: measured viability at 28.5 h, 10 µM below 90% gets criterion met; anything equal to or greater than 90% gets criterion not met.

These solved cases illustrate the format of a correct answer.
Task item: Is 90% strictly greater than the molecule's reported viability at 28.5 h, 10 µM? molecule: `CCC(=O)NNC(=O)c1cc(O)nc2ccccc12`
Reply: criterion not met

Task item: Is 90% strictly greater than the molecule's reported viability at 28.5 h, 10 µM? molecule: `Cc1ccc(OCC(=O)Nc2sc3c(c2C#N)CCCC3)cc1`
Reply: criterion not met

Task item: Is 90% strictly greater than the molecule's reported viability at 28.5 h, 10 µM? molecule: `CC(=O)NC1(c2ccccc2)CCN(C(=O)Nc2ccccc2-c2ccccc2)CC1`
Reply: criterion not met

Task item: Is 90% strictly greater than the molecule's reported viability at 28.5 h, 10 µM? molecule: `CCCn1ccnc1CNc1nc(C)nc2c1c(C)nn2C`
Reply: criterion met

Further cases:
Task item: Is 90% strictly greater than the molecule's reported viability at 28.5 h, 10 µM? molecule: `Cc1cc(OCC(=O)N2CCCc3c(cnn3C)C2)ccc1Cl`
Reply: criterion not met
